# testProtocol: t1/2 of liver particle metabolism, human
# Type: in vitro ADME
# details: liver particle (liver microsomes)
observable: half-life (h)
Provide the reading as a plain figure in h.

Data request: Need half-life, item CC(c1cccc(-c2ncc(OCC3CCN(C)CC3)cn2)c1)n1cc(-c2cc(C#N)ccn2)cc(F)c1=O (single isomer, unassigned)
Data returned: 1.03

----------
# testProtocol: t1/2 of liver particle metabolism, mice
# Format: in vitro ADME
# details: mouse, liver particle (liver microsomes)
observable: half-life (min)
Kindly answer with a numeric value in min, unit omitted.

Data request: // half-life lookup, key: CC(c1cccc(-c2ncc(OCC3CCN(C)CC3)cn2)c1)n1cc(-c2cc(C#N)ccn2)cc(F)c1=O (single isomer, unassigned)
Data returned: 49.1

Data credit: patent US10501443B2
